- Experiment: Single dose oral pharmacokinetic studies
- Type: in vivo, Male Swiss Albino Mice
- Particulars: male, Swiss Albino, mouse, in vivo, po
- Procedure: Male Swiss Albino Mice (20–30 g) were used in the experiments. The animals were maintained under standard laboratory conditions and had free access to feed and water ad libitum. […] HPLC system (Shimadzu) consisted of system controller (SCL-10AVP), Isocratic pump (LC-10ATVP), auto sampler (SIL-10ADVP), fluorescence detector (RF-10AXL) and column oven at 25° C. […] Pharmacokinetic parameters were calculated for both carboxylate and lactone forms separately by non-compartmental model analysis. […]
Counter-ions that a name gives are not always drawn.
Assay Readout: Tmax
Could you write the number and then its unit?

Sample CC[C@@]1(O)C(=O)OCc2c1cc1n(c2=O)C(OCCF)c2cc3c(CN(C)C)c(O)ccc3nc2-1 (stereo partly shown) [Example 3, hydrochloride] — what was its Tmax?
15 min
